System: microorganisms
Assay: Morphology, biofilm and growth disruption by peptides (Table 5)
Format: cell-based
Design: key: A: Peptide aggregates; B: Less hyphal formation; Clumps; Diffuse clumps and small polyps; F: Diffuse growth; H: Thin; I: Growth inhibition; Microcolony formation; Rippled; Small polyps; Thick; W: Halo formation on top, microlonies on bottom
Settings: S. pneumoniae
Excerpt: In certain embodiments peptides that induce alterations in phenotype or other biological activities can also be used as antimicrobial effector moieties.
Property name: Organism, effect (morphology, biofilm and growth disruption)

[
  {
    "Substance": "PF-635 (chain 1 MNAHGHSLIFQKMIVHAFAFFSKQKNYLYF; chain 2 MNAHGHSLIFQKMIVHAFAFFSKQKNYLYF; Peptide with targeting and/or antimicrobial activity)",
    "Assay value": "S. pneumoniae (D)"
  },
  {
    "Substance": "PF-566 (EAQQVTQQLGADFNAITTPTATKV; Peptide with targeting and/or antimicrobial activity)",
    "Assay value": "S. pneumoniae (D)"
  },
  {
    "Substance": "PF-586 (FFNQANYFFKEF; Peptide with targeting and/or antimicrobial activity)",
    "Assay value": "S. pneumoniae (D)"
  }
]

====

tested on: bacteria; test: Binding of targeting peptides to microorganisms (Table 3); conditions: peptide binding in aqueous buffers that varied depending on peptide solubility; preferably 1x PBS
Property name: Target(s) (microorganisms bound by the targeting peptide)

[
  {
    "Substance": "PF-508 (VSTFGKVVKVVDEK; Peptide with targeting and/or antimicrobial activity)",
    "Assay value": "S. mutans"
  },
  {
    "Substance": "PF-554 (AKNFLTRTAEEIGEQAVREGNINGP; Peptide with targeting and/or antimicrobial activity)",
    "Assay value": "S. pneumoniae"
  },
  {
    "Substance": "PF-557 (AANKAREQAAAEAKRKAEEQAR; Peptide with targeting and/or antimicrobial activity)",
    "Assay value": "S. pneumoniae"
  },
  {
    "Substance": "PF-503 (VVTLKDIVAVIEDQGYDVQ; Peptide with targeting and/or antimicrobial activity)",
    "Assay value": "S. mutans"
  },
  {
    "Substance": "PF-421 (KHCFEITDKTDVV; Peptide with targeting and/or antimicrobial activity)",
    "Assay value": "C. jeikeium"
  },
  {
    "Substance": "PF-501 (GSTAHKSPIGSTNNQWGMKKTPTD; Peptide with targeting and/or antimicrobial activity)",
    "Assay value": "S. mutans"
  },
  {
    "Substance": "PF-481 (DELYEIMDKVIEEFNKDIEQNNNNGNNEDLTENKIN; Peptide with targeting and/or antimicrobial activity)",
    "Assay value": "C. jeikeium"
  },
  {
    "Substance": "PF-436 (KKHVLVGKQEKNG; Peptide with targeting and/or antimicrobial activity)",
    "Assay value": "C. jeikeium"
  },
  {
    "Substance": "PF-542 (KKDNPSLNDQDKNAVLNLLALAK; Peptide with targeting and/or antimicrobial activity)",
    "Assay value": "C. jeikeium"
  },
  {
    "Substance": "PF-551 (QVKEKRREIELQFRDAEKKLEASVQAE; Peptide with targeting and/or antimicrobial activity)",
    "Assay value": "S. pneumoniae"
  },
  {
    "Substance": "PF-435 (MSRWDGHSDKGEAPAGKPPMHGFGLNGENK; Peptide with targeting and/or antimicrobial activity)",
    "Assay value": "C. jeikeium"
  }
]

These measurements were taken from patent US9597407B2.
